- EXPERIMENT DESCRIPTION: In vitro proton relaxivity in human serum
- Assay type: physicochemical
- CONDITION PARAMETERS: 60 MHz, 40° C.
MEASURED PROPERTY: r1 (longitudinal relaxivity) (mM⁻¹ s⁻¹)

[[record]]
compound = "CN1CCN2Cc3cccc(n3)CN(CC1)C(CCC(=O)N(C)C[C@H](O)[C@@H](O)[C@H](O)[C@H](O)CO)C(=O)[O][Mn][O]C(=O)C2CCC(=O)N(C)C[C@H](O)[C@@H](O)[C@H](O)[C@H](O)CO (stereo partly shown) [Mn Chelate 4]"
units = "mM⁻¹ s⁻¹"
recorded_number = 5.3

[[record]]
compound = "CN1CCN2Cc3cccc(n3)CN(CC1)C(CCC(=O)NCC(O)CO)C(=O)[O][Mn][O]C(=O)C2CCC(=O)NCC(O)CO (stereo not shown) [Mn Chelate 10]"
units = "mM⁻¹ s⁻¹"
recorded_number = 4.3

[[record]]
compound = "CN(C[C@H](O)[C@@H](O)[C@H](O)[C@H](O)CO)C(=O)CCCN1CCN2Cc3cccc(n3)CN(CC1)C(CCC(=O)N(C)C[C@H](O)[C@@H](O)[C@H](O)[C@H](O)CO)C(=O)[O][Mn][O]C(=O)C2CCC(=O)N(C)C[C@H](O)[C@@H](O)[C@H](O)[C@H](O)CO (stereo partly shown) [Mn Chelate 3]"
units = "mM⁻¹ s⁻¹"
recorded_number = 8.0

[[record]]
compound = "CN1CCN2Cc3cccc(n3)CN(CC1)C(CCC(=O)Nc1cc(C(=O)NCC(O)CO)cc(C(=O)NCC(O)CO)c1)C(=O)[O][Mn][O]C(=O)C2CCC(=O)Nc1cc(C(=O)NCC(O)CO)cc(C(=O)NCC(O)CO)c1 (stereo not shown) [Mn Chelate 7]"
units = "mM⁻¹ s⁻¹"
recorded_number = 6.0


These measurements were taken from patent US11884686B2.
